I'd appreciate it if you could supply GI50 values for the items below.
Tested on: TK-10 renal
Assay: NCI tumour cell line growth inhibition, 48 h

| compound | value |
| --- | --- |
| COC(=O)C1C(C(=O)O)C2(c3ccccc3)C(=O)C1(c1ccccc1)C(c1ccc(OC)cc1)=C2c1ccc(OC)cc1 (stereo not given) | 31.8 µM |

Give GI50 for each listed item.
1. CC(=O)Oc1ccc(C2OC(c3ccc4ccccc4c3OC(C)=O)=NN2C(C)=O)c(OC(C)=O)c1 (stereo not given)
2. N#CC1=C(N)N=C(N2CCOCC2)C(C#N)C12Nc1ccccc1S2 (stereo not given)
3. CCOC(=O)c1c(C)n([O-])c2cc(F)c(F)cc2[n+]1=O
4. CCCCCOC(=O)Nc1nc(=O)n(C2OC(C)C(O)C2O)cc1F (stereo not given)

1: 0.774 µM; 2: 14 µM; 3: 17.4 µM; 4: > 10000 µM
